- Experiment summary: activity coefficient (dimensionless); of the first substance listed, at infinite dilution; xn = mol fraction of the nth substance listed
- Experimental context: 368.15 K; 100 kPa; Liquid; Chromatography; x1 = 0
Measured parameter: activity coefficient
Provide a numeric answer; units are not to be included.

Supply measured activity coefficient of C=CCCCCCC [oct-1-ene] + CCCC[P+](CC)(CCCC)CCCC.CCOP(=O)([O-])OCC in your reply. 3.39

Identify measured activity coefficient corresponding to CCCCCCC [heptane] + CCCC[P+](CC)(CCCC)CCCC.CCOP(=O)([O-])OCC 3.7

Tell me activity coefficient reported for O [water] + CCCC[P+](CC)(CCCC)CCCC.CCOP(=O)([O-])OCC 0.116

Give me measured activity coefficient, please, for this molecule: C1CCCC1 [cyclopentane] + CCCC[P+](CC)(CCCC)CCCC.CCOP(=O)([O-])OCC 1.71

Give activity coefficient for the following molecule: CCO [ethanol] + CCCC[P+](CC)(CCCC)CCCC.CCOP(=O)([O-])OCC 0.045

Quick one: give measured activity coefficient for C1CCCCCCC1 [cyclooctane] + CCCC[P+](CC)(CCCC)CCCC.CCOP(=O)([O-])OCC 2.57

Input CC(C)OC(C)C [diisopropyl ether] + CCCC[P+](CC)(CCCC)CCCC.CCOP(=O)([O-])OCC , output reported activity coefficient. 2.59

Specify activity coefficient for C1CCCCCC1 [cycloheptane] + CCCC[P+](CC)(CCCC)CCCC.CCOP(=O)([O-])OCC and stop. 2.27

Look up activity coefficient of CCCCCCCCCC [decane] + CCCC[P+](CC)(CCCC)CCCC.CCOP(=O)([O-])OCC and report it. 6.05

Specify measured activity coefficient for CCC[N+](=O)[O-] [1-nitropropane] + CCCC[P+](CC)(CCCC)CCCC.CCOP(=O)([O-])OCC . 0.53

For the molecule CCCC(=O)CC [3-hexanone] + CCCC[P+](CC)(CCCC)CCCC.CCOP(=O)([O-])OCC , give its reported activity coefficient. 1.2

Tell us which activity coefficient value is on record for CC(C)=O [acetone] + CCCC[P+](CC)(CCCC)CCCC.CCOP(=O)([O-])OCC 0.809

Please supply the value of reported activity coefficient for the item C#CCCCCC [1-heptyne] + CCCC[P+](CC)(CCCC)CCCC.CCOP(=O)([O-])OCC 1.17

====

- Experiment summary: activity coefficient (dimensionless); of the first substance listed, at infinite dilution; xn = mol fraction of the nth substance listed
- Experimental context: 348.15 K; 100 kPa; Liquid; Chromatography; x1 = 0
Would you mind sorting the entries by activity coefficient according to these classes? label 0: < 1; label 1: ≥ 1 and < 3; label 2: ≥ 3

Class (by measured activity coefficient) for CCCC(=O)CC [3-hexanone] + CCCC[P+](CC)(CCCC)CCCC.CCOP(=O)([O-])OCC label 1

Form field 'band' for CCCCCC [hexane] + CCCC[P+](CC)(CCCC)CCCC.CCOP(=O)([O-])OCC label 2

Bin this entry: CCCCCCCCCC [decane] + CCCC[P+](CC)(CCCC)CCCC.CCOP(=O)([O-])OCC label 2

Record CCOC(C)(C)C [2-ethoxy-2-methylpropane] + CCCC[P+](CC)(CCCC)CCCC.CCOP(=O)([O-])OCC — which class? label 1

State the class of the compound shown: CC(C)OC(C)C [diisopropyl ether] + CCCC[P+](CC)(CCCC)CCCC.CCOP(=O)([O-])OCC label 1

Just checking, what class would you give CO [methanol] + CCCC[P+](CC)(CCCC)CCCC.CCOP(=O)([O-])OCC here? label 0

Which activity coefficient band matches CCC(C)(C)C [2,2-dimethylbutane] + CCCC[P+](CC)(CCCC)CCCC.CCOP(=O)([O-])OCC ? label 2

Band of CCCCC [pentane] + CCCC[P+](CC)(CCCC)CCCC.CCOP(=O)([O-])OCC ? label 1

Tag the class for CC(C)=O [acetone] + CCCC[P+](CC)(CCCC)CCCC.CCOP(=O)([O-])OCC label 0

====

- Experiment summary: activity coefficient (dimensionless); of the first substance listed, at infinite dilution; xn = mol fraction of the nth substance listed
- Experimental context: 328.15 K; 100 kPa; Liquid; Chromatography; x1 = 0
Think of 3 as a floor: if activity coefficient stands on it or above, it is Fulfilled; beneath it, Not fulfilled.

Does CCCCCC [hexane] + CCCC[P+](CC)(CCCC)CCCC.CCOP(=O)([O-])OCC have a reported activity coefficient of at least 3? Fulfilled

Decide: is the reported value of activity coefficient for CC(C)OC(C)C [diisopropyl ether] + CCCC[P+](CC)(CCCC)CCCC.CCOP(=O)([O-])OCC equal to or greater than 3? Not fulfilled

Entry C#CCCCCC [1-heptyne] + CCCC[P+](CC)(CCCC)CCCC.CCOP(=O)([O-])OCC : is its activity coefficient no less than 3? Not fulfilled

Dear colleague, could you confirm whether C1CCCCCCC1 [cyclooctane] + CCCC[P+](CC)(CCCC)CCCC.CCOP(=O)([O-])OCC has activity coefficient at or above 3? Not fulfilled

Check if activity coefficient >= 3 (inclusive). Item: CCC(C)CC [3-methylpentane] + CCCC[P+](CC)(CCCC)CCCC.CCOP(=O)([O-])OCC Fulfilled

Would you say CC#N [acetonitrile] + CCCC[P+](CC)(CCCC)CCCC.CCOP(=O)([O-])OCC shows activity coefficient at minimum 3? Not fulfilled

Kindly determine if activity coefficient recorded for c1ccncc1 [pyridine] + CCCC[P+](CC)(CCCC)CCCC.CCOP(=O)([O-])OCC is above or exactly 3. Not fulfilled

====

- Experiment summary: activity coefficient (dimensionless); of the first substance listed, at infinite dilution; xn = mol fraction of the nth substance listed
- Experimental context: 348.15 K; 100 kPa; Liquid; Chromatography; x1 = 0
Measured parameter: activity coefficient
# answer = number (no unit)

Return activity coefficient for the following molecule: C=CCCCCCCCC [1-decene] + CCCC[P+](CC)(CCCC)CCCC.CCOP(=O)([O-])OCC 4.93

Tell me activity coefficient reported for CCC(C)(C)OC [2-methoxy-2-methylbutane] + CCCC[P+](CC)(CCCC)CCCC.CCOP(=O)([O-])OCC 2.05

Input CCC[N+](=O)[O-] [1-nitropropane] + CCCC[P+](CC)(CCCC)CCCC.CCOP(=O)([O-])OCC , output reported activity coefficient. 0.515

State its activity coefficient: CCCCC(C)=O [2-hexanone] + CCCC[P+](CC)(CCCC)CCCC.CCOP(=O)([O-])OCC 1.15

Item CC(C)CC(C)(C)C [2,2,4-trimethylpentane] + CCCC[P+](CC)(CCCC)CCCC.CCOP(=O)([O-])OCC : provide activity coefficient 4.15

For the molecule CC1CCCCC1 [methylcyclohexane] + CCCC[P+](CC)(CCCC)CCCC.CCOP(=O)([O-])OCC , give its measured activity coefficient value. 2.52

For the molecule c1ccncc1 [pyridine] + CCCC[P+](CC)(CCCC)CCCC.CCOP(=O)([O-])OCC , give its measured activity coefficient value. 0.548

Supply activity coefficient value. Item: C#CCCCCC [1-heptyne] + CCCC[P+](CC)(CCCC)CCCC.CCOP(=O)([O-])OCC 1.09

State, in one line, measured activity coefficient of O [water] + CCCC[P+](CC)(CCCC)CCCC.CCOP(=O)([O-])OCC 0.109

Name the recorded activity coefficient of the molecule listed here: C#CCCC [1-pentyne] + CCCC[P+](CC)(CCCC)CCCC.CCOP(=O)([O-])OCC 0.797

Report activity coefficient for C1CCCC1 [cyclopentane] + CCCC[P+](CC)(CCCC)CCCC.CCOP(=O)([O-])OCC 1.77

Item C=CCCCCC [1-heptene] + CCCC[P+](CC)(CCCC)CCCC.CCOP(=O)([O-])OCC : provide activity coefficient 2.97

Let me know recorded activity coefficient for C=CCCC [1-pentene] + CCCC[P+](CC)(CCCC)CCCC.CCOP(=O)([O-])OCC , thanks. 2.13

For COC(C)(C)C [2-methoxy-2-methylpropane] + CCCC[P+](CC)(CCCC)CCCC.CCOP(=O)([O-])OCC , write its activity coefficient. 1.84

Quickly give me recorded activity coefficient for CCCCCCCC [octane] + CCCC[P+](CC)(CCCC)CCCC.CCOP(=O)([O-])OCC 4.6

Specify reported activity coefficient for the molecule shown: C1CCCCCC1 [cycloheptane] + CCCC[P+](CC)(CCCC)CCCC.CCOP(=O)([O-])OCC 2.37

Determine from records and report activity coefficient for Cc1cccc(C)c1 [1,3-dimethylbenzene] + CCCC[P+](CC)(CCCC)CCCC.CCOP(=O)([O-])OCC 1.64
